- Test system: 324938-238-R-J1-PDC complex spheroids viability;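 note: viability read after seven days of drug exposure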
- ASSAY_REMARKS: Anticancer human tumor 324938-238-R-J1-PDC patient-derived bladder carcinoma cell line growth inhibition [CLK]; active = viability on the fitted dose curve at most 10% of control; inactive = the rest
- DETAILS: second compound 0.1 µM; first compound 10 µM
Outcomes you can answer with include only these: True = active, False = inactive

COMPOUND | TARGET_ENTITY | CAT
C#Cc1c(F)ccc2cc(O)cc(-c3ncc4c(N5CC6CCC(C5)N6)nc(OCC56CCCN5CC(F)C6)nc4c3F)c12 (stereo not given) + CNC(=O)c1ccc(Nc2nc(OC3CCCC3)c3c(-c4ccc5nc(C)oc5c4)c[nH]c3n2)c(OC)c1 | 324938-238-R-J1-PDC complex spheroids viability | False
COc1cccc2c1C(=O)c1c(O)c3c(c(O)c1C2=O)CC(O)(C(=O)CO)CC3OC1CC(N)C(O)C(C)O1 (stereo not given) + CN1CCN(c2cc(C(=O)Nc3cc4cc(-c5cnn(C)c5)ccc4cn3)ccn2)CC1 | 324938-238-R-J1-PDC complex spheroids viability | True
COc1cccc2c1C(=O)c1c(O)c3c(c(O)c1C2=O)CC(O)(C(=O)CO)CC3OC1CC(N)C(O)C(C)O1 (stereo not given) + CNC(=O)c1ccc(Nc2nc(OC3CCCC3)c3c(-c4ccc5nc(C)oc5c4)c[nH]c3n2)c(OC)c1 | 324938-238-R-J1-PDC complex spheroids viability | True
C=CC(=O)N1CCN(c2nc(=O)n(-c3c(C)ccnc3C(C)C)c3nc(-c4c(O)cccc4F)c(F)cc23)C(C)C1 (stereo not given) + CN1CCN(c2cc(C(=O)Nc3cc4cc(-c5cnn(C)c5)ccc4cn3)ccn2)CC1 | 324938-238-R-J1-PDC complex spheroids viability | False

Continue with the compound presented below.
Q: Any idea what this test logged for COc1ccc([C@@H](O)c2cc(-c3ncnc4cc(N5CCOCC5)ccc34)c(F)cc2Cl)nn1 + CN1CCN(c2cc(C(=O)Nc3cc4cc(-c5cnn(C)c5)ccc4cn3)ccn2)CC1 ?
Ans: False
